molecular target: IRAK1 (Homo sapiens, UniProt P51617)
Sequence (P51617 whole entry): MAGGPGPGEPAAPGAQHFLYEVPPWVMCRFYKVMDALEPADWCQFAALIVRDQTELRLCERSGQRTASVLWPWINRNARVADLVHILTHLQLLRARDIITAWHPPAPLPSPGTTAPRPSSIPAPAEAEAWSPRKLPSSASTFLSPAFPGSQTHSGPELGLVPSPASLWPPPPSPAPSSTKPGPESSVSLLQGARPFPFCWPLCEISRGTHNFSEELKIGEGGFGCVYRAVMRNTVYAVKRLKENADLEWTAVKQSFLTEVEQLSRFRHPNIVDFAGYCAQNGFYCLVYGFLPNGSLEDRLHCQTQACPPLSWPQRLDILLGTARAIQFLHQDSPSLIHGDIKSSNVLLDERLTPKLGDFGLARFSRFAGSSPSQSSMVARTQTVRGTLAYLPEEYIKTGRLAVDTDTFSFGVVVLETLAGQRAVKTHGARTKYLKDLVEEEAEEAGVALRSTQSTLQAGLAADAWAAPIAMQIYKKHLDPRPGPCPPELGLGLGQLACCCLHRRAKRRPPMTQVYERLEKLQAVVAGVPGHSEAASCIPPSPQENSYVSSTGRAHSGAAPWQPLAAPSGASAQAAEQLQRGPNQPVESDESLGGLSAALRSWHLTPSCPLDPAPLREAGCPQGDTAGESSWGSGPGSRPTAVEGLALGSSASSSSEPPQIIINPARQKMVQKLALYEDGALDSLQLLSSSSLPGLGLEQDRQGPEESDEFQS
pIC50: −log10 of the molar value.
Decision: pIC50 compared against 6; not below it gives class 1, below it gives class 0.

// known answers, use as guide
CC(C)(C)c1ccc2ncc(-c3cccc(N[C@H]4CNC[C@@H]4F)n3)n2n1	class 0
c1cc(N[C@@H]2CCCNC2)nc(-c2cnc3ccc(-c4cnn5ccccc45)nn23)c1	class 1
COc1cc2ncc(-c3cccc(N[C@@H]4CCCNC4)n3)n2nc1C1CC1	class 0
FC(F)n1cc(-c2ccc3ncc(-c4cccc(N[C@@H]5CCCNC5)n4)n3n2)cn1	class 0
c1cc(NC2CC3(CCNC3)C2)nc(-c2cnc3ccc(-c4cnn5ccccc45)nn23)c1 (centres unmarked)	class 1

Check if pIC50 >= 6 (inclusive). Item: COc1cc2ncc(-c3cccc(N[C@@H]4CCCNC4)n3)n2nc1C(C)(O)C(F)(F)F (single isomer, unassigned) [Compound 131] class 0

Check if pIC50 >= 6 (inclusive). Item: `c1cc(NC2CC3(CNC3)C2)nc(-c2cnc3ccc(-c4cnn5ccccc45)nn23)c1` class 1

Measured values drawn from patent US12534469B2 for this set.
